Some binders, each annotated with its measured kon.
target-entity: T1, human CXCR4-enriched lipoparticles (LEV101, Integral Molecular) (human, UniProt P61073 1-352)
T1 construct: Bought reagent; CXCR4 held in lipoparticles captured by biotinylated WGA on an SA chip; also called Lipoparticles containing CXCR4 proteins
T1 sequence (P61073 whole entry): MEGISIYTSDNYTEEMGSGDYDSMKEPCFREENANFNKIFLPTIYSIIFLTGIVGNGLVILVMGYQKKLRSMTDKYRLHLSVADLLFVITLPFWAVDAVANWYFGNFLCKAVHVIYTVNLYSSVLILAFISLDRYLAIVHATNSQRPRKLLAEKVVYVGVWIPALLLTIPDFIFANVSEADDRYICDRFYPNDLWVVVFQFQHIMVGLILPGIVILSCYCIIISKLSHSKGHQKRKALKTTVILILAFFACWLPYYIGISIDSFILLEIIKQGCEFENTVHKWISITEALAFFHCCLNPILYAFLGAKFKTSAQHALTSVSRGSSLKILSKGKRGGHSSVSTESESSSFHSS
assay-text: biosensor kinetic titration, Fab over captured human CXCR4 lipoparticles
measured-property: kon

• h3G10.2.37 VH / h3G10.2.72 VL Fab (Fab, V domains shown, Tested as Fab) VH: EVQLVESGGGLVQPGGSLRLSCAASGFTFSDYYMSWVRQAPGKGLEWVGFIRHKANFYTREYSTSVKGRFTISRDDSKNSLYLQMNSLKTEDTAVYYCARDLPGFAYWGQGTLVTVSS VL: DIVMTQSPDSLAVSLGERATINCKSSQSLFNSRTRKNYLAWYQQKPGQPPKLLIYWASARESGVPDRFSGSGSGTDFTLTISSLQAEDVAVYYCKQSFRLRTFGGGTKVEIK = 2.3e+06 M⁻¹ s⁻¹
• h3G10 VH / h3G10 VL Fab (Fab, V domains shown, Tested as Fab; also called h3G10 Fab) VH: EVQLVESGGGLVQPGGSLRLSCAASGFTFSDYYMSWVRQAPGKGLEWVGFIRHKANGYTTEYSTSVKGRFTISRDDSKNSLYLQMNSLKTEDTAVYYCARDLPGFAYWGQGTLVTVSS VL: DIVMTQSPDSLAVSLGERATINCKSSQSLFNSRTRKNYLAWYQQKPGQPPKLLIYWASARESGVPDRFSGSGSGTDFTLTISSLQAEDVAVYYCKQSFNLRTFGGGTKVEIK = 1.6e+06 M⁻¹ s⁻¹
• h3G10.1.91 VH / h3G10.A58A VL Fab (Fab, V domains shown, Tested as Fab) VH: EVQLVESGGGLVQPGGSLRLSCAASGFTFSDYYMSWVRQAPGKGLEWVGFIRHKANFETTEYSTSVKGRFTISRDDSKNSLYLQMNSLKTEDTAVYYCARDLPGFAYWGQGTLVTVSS VL: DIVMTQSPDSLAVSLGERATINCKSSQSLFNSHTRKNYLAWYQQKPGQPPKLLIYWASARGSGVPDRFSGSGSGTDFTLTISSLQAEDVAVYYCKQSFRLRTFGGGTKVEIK = 908000 M⁻¹ s⁻¹
